EXPERIMENTAL_PROTOCOL: Drug metabolism experiment on prodrug in SD rats: plasma pharmacokinetic parameters
Format: in vivo
STATED_CONDITIONS: male, Sprague-Dawley (SD), rat, plasma, po, 3 mg/kg, oral 3 mg/kg Compound 10
QUANTITY: AUC(0-t) (ng·h/mL)
Numbers only, in ng·h/mL.

{"columns": ["CHEM_SMILES", "AUC(0-t) (ng·h/mL)"],
 "data": [
  ["Cc1cc(OCP(=O)(O)O)cc(C)c1Cc1ccc(O)c2c1CCC2(C)C", 586]
]}

Let us examine a further case.
Lookup: Reported AUC(0-t), compound `Cc1cc(OC[P@@]2(=O)OCC[C@@H](c3cccc(Cl)c3)O2)cc(C)c1Cc1ccc(O)c2c1CCC2(C)C` : ____
Found: 69.2

###

Please respond with reported Emax for every item in the list.
MEASURED_TARGET: THR-α (Homo sapiens)
Construct: TR-a LBD, GST purchased from Thermo Fisher; purchased Thermo Fisher PV4762
Sequence (P10827 163-410 isoform P10827-2 limits assumed, other chains not shown): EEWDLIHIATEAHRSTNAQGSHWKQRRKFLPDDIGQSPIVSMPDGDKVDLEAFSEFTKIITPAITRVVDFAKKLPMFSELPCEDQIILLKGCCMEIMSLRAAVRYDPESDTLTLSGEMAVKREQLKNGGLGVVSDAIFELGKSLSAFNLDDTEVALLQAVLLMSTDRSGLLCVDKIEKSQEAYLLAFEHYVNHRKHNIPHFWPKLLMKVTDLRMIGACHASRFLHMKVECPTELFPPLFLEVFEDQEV
Sequence (P19793 whole entry partner, other chains not shown, the tested form may be a part): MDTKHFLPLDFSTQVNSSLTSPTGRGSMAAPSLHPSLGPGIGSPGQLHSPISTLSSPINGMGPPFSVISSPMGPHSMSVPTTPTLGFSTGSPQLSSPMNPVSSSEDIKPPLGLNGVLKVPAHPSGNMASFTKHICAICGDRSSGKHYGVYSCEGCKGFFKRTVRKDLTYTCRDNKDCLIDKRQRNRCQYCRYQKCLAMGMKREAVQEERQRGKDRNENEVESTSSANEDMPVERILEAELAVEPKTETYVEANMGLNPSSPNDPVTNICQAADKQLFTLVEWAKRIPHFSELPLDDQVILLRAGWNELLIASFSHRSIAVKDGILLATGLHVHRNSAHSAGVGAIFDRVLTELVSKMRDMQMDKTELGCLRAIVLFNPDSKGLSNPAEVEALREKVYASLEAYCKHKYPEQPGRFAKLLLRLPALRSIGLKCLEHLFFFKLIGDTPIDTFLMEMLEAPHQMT
EXPERIMENTAL_PROTOCOL: Test of the binding ability of the compound to TRα (TRα LBD/RXRα, biotin-SRC2-2 co-activating peptide, 665/615 nm fluorescence ratio)
Type: biochemical
STATED_CONDITIONS: activity relative to positive control
One number for each entry, in %.

{"columns": ["MOLECULE", "QUANTITY", "OUTPUT_UNIT", "RESULT_NUMBER"],
 "data": [
  ["CC1(C)CCc2c(Cc3c(Cl)cc(OCP(=O)(O)O)cc3Cl)ccc(O)c21", "Emax", "%", 99.2],
  ["Cc1cc(OCP(=O)(O)O)cc(C)c1Oc1ccc(O)c2c1CCC2(C)C", "Emax", "%", 102],
  ["Cc1cc(OCP(=O)(O)O)cc(C)c1Cc1ccc(O)c2c1CCCC2(C)C", "Emax", "%", 105],
  ["Cc1cc(OCP(=O)(O)O)cc(C)c1Cc1ccc(O)c2c1CCC2(C)C", "Emax", "%", 96.4],
  ["Cc1cc(OCP(=O)(O)O)cc(C)c1Cc1ccc(O)c2c1CCCC2 [B, reference compound]", "Emax", "%", 106]
]}

For each of the molecules below, state Emax.
1. Cc1cc(OCP(=O)(O)O)cc(C)c1Cc1ccc(O)c(C(C)C)c1 [MB07444, reference compound]
2. Cc1cc(OCP(=O)(O)O)cc(C)c1Cc1ccc(O)c2ccccc12 [A, reference compound]
3. Cc1cc(OCP(=O)(O)O)cc(C)c1Cc1ccc(O)c2c1CCC2C (centres unmarked)

Found:
1: 113; 2: 106; 3: 98.3

###

EXPERIMENTAL_PROTOCOL: Drug metabolism experiment on prodrug in SD rats: concentration in liver compared with blood
Type: in vivo
STATED_CONDITIONS: male, Sprague-Dawley (SD), rat, plasma (heading prints blood), po, 3 mg/kg, 24 h, SD rats, oral 3 mg/kg Compound 10; read-out: Ct Blood
QUANTITY: concentration at 24 h (ng/g)
Give bare numbers, in ng/g.

Lookup: Form field: reported concentration at 24 h of Cc1cc(OCP(=O)(O)O)cc(C)c1Cc1ccc(O)c2c1CCC2(C)C [Compound 1]
Found: 3.83

###

Field: concentration at 4 h. Provide a value for each of the compounds that follow.
EXPERIMENTAL_PROTOCOL: Drug metabolism experiment on prodrug in SD rats: concentration in liver compared with blood
Format: in vivo
STATED_CONDITIONS: male, Sprague-Dawley (SD), rat, liver, po, 3 mg/kg, 4 h, SD rats, oral 3 mg/kg Compound 10; read-out: Ct Liver
Answers are plain numbers, in ng/g.

{"columns": ["CHEM_SMILES", "RESULT_NUMBER"],
 "data": [
  ["Cc1cc(OC[P@@]2(=O)OCC[C@@H](c3cccc(Cl)c3)O2)cc(C)c1Cc1ccc(O)c2c1CCC2(C)C", 273]
]}

Please look at the following compound next.
Lookup: I'd like to know its concentration at 4 h. The compound in question is `Cc1cc(OCP(=O)(O)O)cc(C)c1Cc1ccc(O)c2c1CCC2(C)C`
Found: 2580
